For each entry below, report its pIC50 value.
protocol: Binding affinity to N-terminal 6His-TEV-tagged recombinant human GPX4-U46C-C10A-C66A mutant (Met1 to Phe170 residues) expressed in Escherichia coli BL21 (DE3) cells incubated for 20 mins in presence of FITC-labeled peptide by fluorescence polarization based competitive binding assay
Format: cell-based
Schema: pIC50 number; meaning minus log10 of the concentration expressed in molar units.

Prompt: Which pIC50 is listed for Cc1c(NCS(=O)(=O)O)c(=O)n(C2CCCCC2)n1C ?
Response: 5.60

Prompt: Which pIC50 is listed for Cc1c(NCS(=O)(=O)O)c(=O)n(-c2ccccc2Br)n1C ?
Response: 4.92

Prompt: Which pIC50 is listed for Cc1c(NCS(=O)(=O)O)c(=O)n(-c2cccc(-c3ccoc3)c2)n1C ?
Response: 5.23

Prompt: Which pIC50 is listed for Cc1c(NCS(=O)(=O)O)c(=O)n(-c2ccccc2)n1C ?
Response: 5.63

Prompt: Which pIC50 is listed for CCCn1c(C)c(NCS(=O)(=O)O)c(=O)n1-c1ccccc1 ?
Response: 5.22

Prompt: Which pIC50 is listed for Cc1c(NCS(=O)(=O)O)c(=O)n(-c2cccc(-c3ccc(Br)cc3)c2)n1C ?
Response: 5.02

Prompt: Which pIC50 is listed for Cn1c(CO)c(NCS(=O)(=O)O)c(=O)n1-c1ccccc1 ?
Response: 4.64

Prompt: Which pIC50 is listed for Cc1c(NCS(=O)(=O)O)c(=O)n(-c2ccccc2-c2ccccc2)n1C ?
Response: 5.38

Prompt: Which pIC50 is listed for Cc1c(NCS(=O)(=O)O)c(=O)n(-c2ccc(-c3ccoc3)cc2)n1C ?
Response: 5.07

Prompt: Which pIC50 is listed for Cc1c(NCS(=O)(=O)O)c(=O)n(-c2ccccn2)n1C ?
Response: 5.45

Prompt: Which pIC50 is listed for Cn1c(C2CC2)c(NCS(=O)(=O)O)c(=O)n1-c1ccccc1 ?
Response: 5.33

Prompt: Which pIC50 is listed for CC(C)c1c(NCS(=O)(=O)O)c(=O)n(-c2ccccc2)n1C ?
Response: 5.34

Prompt: Which pIC50 is listed for Cc1c(NCS(=O)(=O)O)c(=O)n(-c2ccccc2-c2ccoc2)n1C ?
Response: 5.24

Prompt: Which pIC50 is listed for Cc1c(N(C)CS(=O)(=O)O)c(=O)n(-c2ccccc2)n1C [DIPYRONE SODIUM] ?
Response: 5.32

Prompt: Which pIC50 is listed for Cc1c(NCS(=O)(=O)O)c(=O)n(-c2cccc(Br)c2)n1C ?
Response: 4.99
